Taken from patent US20260285835A1.

- Assay comment: Stability test in simulated gastric fluid (SGF)
- Type: in vitro ADME
- Condition context: simulated gastric fluid, pH 1.2, generation in SGF, 37° C., 6 hr, read-out: Parent drug HMS5552 (%)
Measurement kind: metabolised at 6 h, 2 µM (%)

{"Smiles record": "CC(C)C[C@@H](C(=O)Nc1ccn(C[C@@H](O)COC(=O)c2cccnc2)n1)N1CC(Oc2ccccc2Cl)=CC1=O", "Measurement kind": "metabolised at 6 h, 2 µM", "Recorded measurement": 1.02}

---

- Assay comment: Stability test in simulated intestinal fluid (SIF)
- Assay type: in vitro ADME
- Condition context: simulated intestinal fluid, pH 6.8, generation in SIF, 37° C., 6 hr, read-out: Parent drug HMS5552 (%)

{"Smiles record": "CC(C)C[C@@H](C(=O)Nc1ccn(C[C@@H](O)COC(=O)c2cccnc2)n1)N1CC(Oc2ccccc2Cl)=CC1=O", "metabolised at 6 h, 2 µM (%)": 72.8}

---

- Assay comment: Stability test in simulated intestinal fluid (SIF)
- Type: in vitro ADME
- Condition context: simulated intestinal fluid, pH 6.8, generation in SIF, 37° C., 1 hr, read-out: Parent drug HMS5552 (%)

{"Smiles record": "CC(C)C[C@@H](C(=O)Nc1ccn(C[C@@H](O)COC(=O)c2cccnc2)n1)N1CC(Oc2ccccc2Cl)=CC1=O", "metabolised at 1 h, 2 µM": "35.6%"}

---

- Assay comment: Caco-2 bi-directional permeability test
- Assay type: in vitro ADME
- Condition context: human, Caco-2, pH 7.4, Compound A concentration 10.0 μM; read-out: Average conversion rate to parent drug HMS5552 (%) A→B
Measurement kind: metabolised at 2 h, 10 µM (%)

{"Smiles record": "CC(C)C[C@@H](C(=O)Nc1ccn(C[C@@H](O)COC(=O)c2cccnc2)n1)N1CC(Oc2ccccc2Cl)=CC1=O", "Recorded measurement": 37.4}

---

- Assay comment: Caco-2 bi-directional permeability test
- Format: in vitro ADME
- Condition context: human, Caco-2, pH 7.4, Compound A concentration 2.00 μM; read-out: Average conversion rate to parent drug HMS5552 (%) B→A

{"Smiles record": "CC(C)C[C@@H](C(=O)Nc1ccn(C[C@@H](O)COC(=O)c2cccnc2)n1)N1CC(Oc2ccccc2Cl)=CC1=O", "metabolised at 2 h, 2 µM (%)": 5.8}

---

- Assay comment: Simulated metabolic test in human intestine S9
- Assay type: in vitro ADME
- Condition context: human, s9, pH 7.4; HIS9 0.5 mg/mL, 37° C., 5 min; read-out: Parent drug HMS5552 (%)
Measurement kind: metabolised at 5 min (%)

{"Smiles record": "CC(C)C[C@@H](C(=O)Nc1ccn(C[C@@H](O)COC(=O)c2cccnc2)n1)N1CC(Oc2ccccc2Cl)=CC1=O", "Recorded measurement": 80}
